Data provenance: ChEMBL document CHEMBL1909046

- ASSAY_SYSTEM: Histamine H2 receptor (Homo sapiens, UniProt P25021); also: in other assays of this panel Not Active means under 50% inhibition at 10 µM
- Sequence (P25021 whole entry): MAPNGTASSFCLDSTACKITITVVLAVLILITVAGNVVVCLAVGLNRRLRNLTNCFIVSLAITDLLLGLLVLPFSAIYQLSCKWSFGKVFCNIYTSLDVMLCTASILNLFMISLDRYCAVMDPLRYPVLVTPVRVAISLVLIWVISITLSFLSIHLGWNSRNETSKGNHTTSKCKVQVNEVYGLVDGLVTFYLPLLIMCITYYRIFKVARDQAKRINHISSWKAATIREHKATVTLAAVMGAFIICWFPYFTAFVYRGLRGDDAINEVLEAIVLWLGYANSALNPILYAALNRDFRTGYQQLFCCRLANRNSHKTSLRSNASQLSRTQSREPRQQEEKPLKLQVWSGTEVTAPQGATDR
- Assay type: cell membranes, CHO-K1, Membrane
- MEASUREMENT_CONDITIONS: read-out: IC50
Entries and their IC50
Answer format: numeric, nM implied, no suffix.

The examples below pair each entry with its known result.
The recorded IC50 for entry CN(C)c1ccc(C(=C2C=CC(=[N+](C)C)C=C2)c2ccc(N(C)C)cc2)cc1.[Cl-] equals 1160

The recorded IC50 for entry CN1CCC(=C2c3ccccc3C=Cc3ccccc32)CC1 equals 198

Next:
The recorded IC50 for entry CC(=O)N1CCN(c2ccc(OCC3COC(Cn4ccnc4)(c4ccc(Cl)cc4Cl)O3)cc2)CC1 (stereo not drawn) equals 21900

----------
- ASSAY_SYSTEM: Alpha-1A adrenergic receptor (Rattus norvegicus)
- Sequence (P43140 whole entry): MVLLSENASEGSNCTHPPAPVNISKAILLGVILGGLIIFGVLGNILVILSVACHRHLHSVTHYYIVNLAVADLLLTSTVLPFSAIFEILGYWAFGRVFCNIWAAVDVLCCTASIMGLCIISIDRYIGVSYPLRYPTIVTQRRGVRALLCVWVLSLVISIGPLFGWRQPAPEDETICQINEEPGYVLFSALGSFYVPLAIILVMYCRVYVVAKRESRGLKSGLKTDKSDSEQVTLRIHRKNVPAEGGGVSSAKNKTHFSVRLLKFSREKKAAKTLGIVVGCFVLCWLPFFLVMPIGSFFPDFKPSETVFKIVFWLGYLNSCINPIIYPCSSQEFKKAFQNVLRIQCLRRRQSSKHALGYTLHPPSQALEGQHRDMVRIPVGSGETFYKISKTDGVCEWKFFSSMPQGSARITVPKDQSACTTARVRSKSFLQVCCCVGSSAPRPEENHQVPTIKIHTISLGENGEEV
- ASSAY_REMARKS: DRUGMATRIX: Alpha-1A adrenergic receptor radioligand binding (ligand: prazosin)
- Assay type: cell membranes, Wistar, Submaxillary gland, Membrane
- MEASUREMENT_CONDITIONS: Not Active = under 50% inhibition at 10 µM; read-out: IC50
For each record, check the reported IC50: if it is below 2 µM write Criterion met, else write Criterion not met.

Query: Say whether its IC50 is strictly beneath 2 µM. Entry: O=C(c1ccc(OCCN2CCCCC2)cc1)c1c(-c2ccc(O)cc2)sc2cc(O)ccc12 [RALOXIFENE]
Response: Criterion not met

Next:
Query: Say whether its IC50 is strictly beneath 2 µM. Entry: CC/C(=C(/CC)c1ccc(O)cc1)c1ccc(O)cc1 [DIETHYLSTILBESTROL]
Response: Criterion not met

Query: Say whether its IC50 is strictly beneath 2 µM. Entry: CN1CCC(=C2c3ccccc3C=Cc3ccccc32)CC1 [CYPROHEPTADINE]
Response: Criterion met

Query: Say whether its IC50 is strictly beneath 2 µM. Entry: Clc1ccc2c(c1)C(N1CCNCC1)=Nc1ccccc1O2 [AMOXAPINE]
Response: Criterion met

Query: Say whether its IC50 is strictly beneath 2 µM. Entry: CC(=O)N1CCN(c2ccc(OCC3COC(Cn4ccnc4)(c4ccc(Cl)cc4Cl)O3)cc2)CC1 (stereo not given) [KETOCONAZOLE]
Response: Criterion not met

----------
- ASSAY_SYSTEM: D(4) dopamine receptor (Homo sapiens, UniProt P21917)
- Sequence (P21917 whole entry): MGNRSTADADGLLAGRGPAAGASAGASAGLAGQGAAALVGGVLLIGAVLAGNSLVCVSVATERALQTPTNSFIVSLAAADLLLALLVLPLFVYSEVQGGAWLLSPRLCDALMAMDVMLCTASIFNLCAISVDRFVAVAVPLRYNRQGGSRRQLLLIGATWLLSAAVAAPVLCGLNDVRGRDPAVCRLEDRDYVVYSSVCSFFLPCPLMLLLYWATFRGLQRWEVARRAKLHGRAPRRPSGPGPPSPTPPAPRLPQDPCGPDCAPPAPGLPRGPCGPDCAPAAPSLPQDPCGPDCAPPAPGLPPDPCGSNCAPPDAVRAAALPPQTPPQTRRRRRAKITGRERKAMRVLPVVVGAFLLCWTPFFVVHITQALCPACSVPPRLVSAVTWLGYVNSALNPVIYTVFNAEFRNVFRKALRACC
- ASSAY_REMARKS: DRUGMATRIX: Dopamine D4.2 radioligand binding (ligand: [3H] Spiperone)
- Type: cell membranes, Membrane
- MEASUREMENT_CONDITIONS: cho-k1; Not Active = under 50% inhibition at 10 µM
Where a SMILES comes first, the peptide text is derived from it. Bridges are numbered along the chain shown (N, C = ends). [ ]: non-standard residue; d: D form. The star is where a group is joined. Threoninol(2S,3R) = C[C@@H](O)[C@H](CO)N*
OBSERVED_PROPERTY: IC50

The examples below pair each entry with its known result.
Reading of IC50 for CC[C@@H](CO)NCCN[C@@H](CC)CO with D(4) dopamine receptor (Homo sapiens, UniProt P21917): Not Active

Reading of IC50 for CC(C)(Oc1ccc(C2CCCc3ccccc32)cc1)C(=O)O (stereo not given) with D(4) dopamine receptor (Homo sapiens, UniProt P21917): Not Active

Reading of IC50 for C[C@]12CC[C@@H]3c4ccc(OC(=O)c5ccccc5)cc4CC[C@H]3[C@@H]1CC[C@@H]2O [ESTRADIOL BENZOATE] with D(4) dopamine receptor (Homo sapiens, UniProt P21917): Not Active

Reading of IC50 for C[N+](C)(C)CCO.[Cl-] [CHOLINE CHLORIDE] with D(4) dopamine receptor (Homo sapiens, UniProt P21917): Not Active

Reading of IC50 for C[C@@H](O)[C@H](CO)NC(=O)[C@@H]1CSSC[C@H](NC(=O)[C@H](N)Cc2ccccc2)C(=O)N[C@@H](Cc2ccccc2)C(=O)N[C@H](Cc2c[nH]c3ccccc23)C(=O)N[C@@H](CCCCN)C(=O)N[C@@H]([C@@H](C)O)C(=O)N1 (H-[dF]CF[dW]KTC-{Threoninol(2S,3R)}; disulfide 2-7) with D(4) dopamine receptor (Homo sapiens, UniProt P21917): Not Active

Reading of IC50 for Cc1cc(=O)n(-c2ccccc2)n1C [ANTIPYRINE] with D(4) dopamine receptor (Homo sapiens, UniProt P21917): Not Active

Next:
Reading of IC50 for Oc1ccc(OCc2ccccc2)cc1 with D(4) dopamine receptor (Homo sapiens, UniProt P21917): Not Active

Reading of IC50 for C[C@H]1C[C@H]2[C@@H]3CCC4=CC(=O)C=C[C@]4(C)[C@@]3(Cl)[C@@H](O)C[C@]2(C)[C@@]1(O)C(=O)CO with D(4) dopamine receptor (Homo sapiens, UniProt P21917): Not Active

Reading of IC50 for O=S(=O)([O-])CCS.[Na+] with D(4) dopamine receptor (Homo sapiens, UniProt P21917): Not Active

Reading of IC50 for CC1(C)O[C@@H]2C[C@H]3[C@@H]4C[C@H](F)C5=CC(=O)CC[C@]5(C)[C@H]4[C@@H](O)C[C@]3(C)[C@]2(C(=O)CO)O1 [FLURANDRENOLIDE] with D(4) dopamine receptor (Homo sapiens, UniProt P21917): Not Active

----------
- ASSAY_SYSTEM: Tyrosine-protein kinase Lck (Homo sapiens)
- Sequence (P06239 whole entry): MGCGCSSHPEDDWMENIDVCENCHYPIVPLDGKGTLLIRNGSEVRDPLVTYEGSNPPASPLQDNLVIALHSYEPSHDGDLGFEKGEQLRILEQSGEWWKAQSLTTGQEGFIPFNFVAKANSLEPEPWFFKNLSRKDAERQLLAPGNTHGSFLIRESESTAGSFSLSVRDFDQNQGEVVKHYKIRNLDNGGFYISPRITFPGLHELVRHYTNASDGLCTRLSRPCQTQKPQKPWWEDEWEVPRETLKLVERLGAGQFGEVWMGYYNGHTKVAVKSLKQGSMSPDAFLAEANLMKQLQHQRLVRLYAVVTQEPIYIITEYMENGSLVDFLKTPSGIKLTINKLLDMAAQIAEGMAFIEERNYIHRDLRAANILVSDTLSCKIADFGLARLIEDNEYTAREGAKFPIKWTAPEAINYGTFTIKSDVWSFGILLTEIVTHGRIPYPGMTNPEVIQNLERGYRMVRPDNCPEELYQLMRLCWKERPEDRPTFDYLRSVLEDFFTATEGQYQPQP
- ASSAY_REMARKS: DRUGMATRIX: Protein Tyrosine Kinase, LCK enzyme inhibition (substrate: Poly(Glu:Tyr))
- Format: cell-based, Insect cells
- MEASUREMENT_CONDITIONS: Not Active = under 50% inhibition at 10 µM; read-out: IC50
OBSERVED_PROPERTY: IC50
The reply should read as a number followed by its unit.

The recorded IC50 for entry COc1cccc2c1C(=O)c1c(O)c3c(c(O)c1C2=O)C[C@@](O)(C(=O)CO)C[C@@H]3O[C@H]1C[C@H](N)[C@H](O)[C@H](C)O1 [DOXORUBICIN] equals 31.9 µM

----------
- ASSAY_SYSTEM: Aldo-keto reductase family 1 member B1 (Rattus norvegicus); also: in other assays of this panel Not Active means under 50% inhibition at 10 µM;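 also: inhibition of aldose reductase enzyme activity, measured with DL-glyceraldehyde as the substrate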
- ASSAY_REMARKS: biochemical
- Assay type: tissue-based, Lens of camera-type eye
OBSERVED_PROPERTY: IC50

The recorded IC50 for entry CC(C)C[C@H](NC(=O)[C@@H](O)[C@H](N)Cc1ccccc1)C(=O)O equals Not Active

The recorded IC50 for entry [Cl-].[Cl-].[Zn+2] [ZINC CHLORIDE] equals Not Active

The recorded IC50 for entry COc1ccc2c(c1)[C@]13CCCC[C@@H]1[C@H](C2)N(C)CC3 equals Not Active

The recorded IC50 for entry CC1=C(C(=O)O)N2C(=O)[C@@H](NC(=O)[C@H](N)c3ccccc3)[C@H]2SC1 [CEPHALEXIN ANHYDROUS] equals Not Active

The recorded IC50 for entry Cc1ncc([N+](=O)[O-])n1CCO equals Not Active

Next:
The recorded IC50 for entry OC(CCN1CCCCC1)(c1ccccc1)C1CCCCC1 (stereo not given) equals Not Active

The recorded IC50 for entry Oc1ccc(OCc2ccccc2)cc1 equals Not Active

The recorded IC50 for entry O=c1ccc2ccccc2o1 equals Not Active

The recorded IC50 for entry CC(C)Cc1ccc(C(C)C(=O)O)cc1 (stereo not given) equals Not Active

The recorded IC50 for entry CN1C(C(=O)Nc2ccccn2)=C(O)c2sccc2S1(=O)=O equals Not Active

----------
- ASSAY_SYSTEM: Cannabinoid receptor 1 (Homo sapiens); also: in other assays of this panel Not Active means under 50% inhibition at 10 µM
- Sequence (P21554 whole entry): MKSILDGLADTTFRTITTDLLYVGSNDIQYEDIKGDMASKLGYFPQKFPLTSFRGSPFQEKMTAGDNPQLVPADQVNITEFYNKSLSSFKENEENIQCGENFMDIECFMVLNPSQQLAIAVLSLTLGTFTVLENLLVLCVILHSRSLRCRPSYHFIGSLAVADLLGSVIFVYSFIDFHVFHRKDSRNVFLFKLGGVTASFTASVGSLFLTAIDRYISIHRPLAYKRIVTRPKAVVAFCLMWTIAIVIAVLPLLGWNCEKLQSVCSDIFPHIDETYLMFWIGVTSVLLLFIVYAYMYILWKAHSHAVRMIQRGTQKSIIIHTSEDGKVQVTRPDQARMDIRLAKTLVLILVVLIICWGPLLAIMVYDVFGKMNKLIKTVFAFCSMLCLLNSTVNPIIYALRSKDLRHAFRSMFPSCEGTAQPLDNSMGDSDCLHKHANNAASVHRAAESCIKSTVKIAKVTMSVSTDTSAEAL
- Assay type: cell membranes, Chem-1, Membrane
- MEASUREMENT_CONDITIONS: read-out: Ki
OBSERVED_PROPERTY: Ki (µM)
Answer format: numeric, µM implied, no suffix.

The recorded Ki for entry COCCOC(=O)C1=C(C)NC(C)=C(C(=O)OC(C)C)C1c1cccc([N+](=O)[O-])c1 (configuration not stated) [NIMODIPINE] equals 1.37

API: the following record is the query input.
The recorded Ki for entry C#C[C@]1(O)CC[C@H]2[C@@H]3CCc4cc(OC)ccc4[C@H]3CC[C@@]21C [MESTRANOL] equals 22.5
